- condition.context: in n-butanol, 303.15 K
parameter: solubility (mole fraction)
Write the value as a bare number.

### Prompt Could you please provide reported solubility (mole fraction) for O=[N+]([O-])c1cn[nH]c1[N+](=O)[O-] ? Thanks!
### Response 0.348

---

- condition.context: in toluene, 318.15 K
parameter: solubility (mole fraction)
Write the value as a bare number.

### Prompt Could you please provide reported solubility (mole fraction) for O=[N+]([O-])c1cn[nH]c1[N+](=O)[O-] ? Thanks!
### Response 0.00411

---

- condition.context: in toluene, 333.15 K
parameter: solubility (mole fraction)
Write the value as a bare number.

### Prompt Could you please provide reported solubility (mole fraction) for O=[N+]([O-])c1cn[nH]c1[N+](=O)[O-] ? Thanks!
### Response 0.00725
